target: Neu5Ac(a2-6)Gal(b1-4)GlcNAc(b1-3)Gal(b1-4)GlcNAc; assay: glycan array binding signal (z-score within array); higher = stronger binding; conditions: glycan notation: IUPAC condensed, linker removed
This excerpt belongs to a sample that is enriched for the strongest signals.
glycan array binding signal (z-score) listing for selected binders.
Response field accepts a number only; no unit should be typed.

Worked cases, glycan array binding signal (z-score) given:
{"columns": ["binder", "quantity-kind", "reported"],
 "data": [
  ["Epa13 (Candida glabrata) (protein) MGSSHHHHHHSSGLVPRGSHMASDSSENGYAHGCSPSIRAKLKPGLSMEIYSYALRPTDDHCWDSAYLDPMFPRTGYLTHKLLGKAEGIIGPLNFLAKNPACIPAVSTLPLAFHFPKPFTITNFTMLLYGYLSPKKTGKYTFKLLADDLLLMNFGADNAFDCCSHDATKDNIGEYVAYSVWPGVNKNVTVYLESGIYYPLRLFFNNRDAIAQLDFAYYFNDSPIRQTDFSGMFFSIPDSVKCPANI", "glycan array binding signal (z-score)", -0.07],
  ["Epa21 (Candida glabrata) (protein) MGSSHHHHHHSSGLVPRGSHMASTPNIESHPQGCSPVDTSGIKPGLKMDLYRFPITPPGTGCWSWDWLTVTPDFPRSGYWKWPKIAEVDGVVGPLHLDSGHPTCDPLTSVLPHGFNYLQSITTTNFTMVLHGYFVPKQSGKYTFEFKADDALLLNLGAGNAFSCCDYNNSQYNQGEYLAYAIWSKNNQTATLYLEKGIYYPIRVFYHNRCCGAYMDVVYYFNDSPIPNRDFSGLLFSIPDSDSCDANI", "glycan array binding signal (z-score)", -0.589]
]}

Specify reported glycan array binding signal (z-score) for the binder shown: FaeGad (Escherichia coli) (protein) WMTGDFNGSVDIGGSITADDYRQKWEWEVGTGLNGFGSVLNDLTNGGTKLTITVTGNKPILLGRTKEAFATPVTSGVDGIPHIAFTDYEGASVELRNPDGETEKGLTYFVLPMKNAEGTKVGSVKVNASYAGALGRGGVTSADGELMSLFAEGSHAIFYGGLPTNVKNSELKGGSAAAARTELFGSLSKNDILGQIQRVNANITSLVNVPGSFNENMAYTDGSVVSVAYALGIANGQTIEATFNQAVTTSTQWSAPLNVAITYY
-0.289
